STUDY TARGET: 5'-nucleotidase (Homo sapiens) (UniProt P21589)
Sequence (P21589 whole entry): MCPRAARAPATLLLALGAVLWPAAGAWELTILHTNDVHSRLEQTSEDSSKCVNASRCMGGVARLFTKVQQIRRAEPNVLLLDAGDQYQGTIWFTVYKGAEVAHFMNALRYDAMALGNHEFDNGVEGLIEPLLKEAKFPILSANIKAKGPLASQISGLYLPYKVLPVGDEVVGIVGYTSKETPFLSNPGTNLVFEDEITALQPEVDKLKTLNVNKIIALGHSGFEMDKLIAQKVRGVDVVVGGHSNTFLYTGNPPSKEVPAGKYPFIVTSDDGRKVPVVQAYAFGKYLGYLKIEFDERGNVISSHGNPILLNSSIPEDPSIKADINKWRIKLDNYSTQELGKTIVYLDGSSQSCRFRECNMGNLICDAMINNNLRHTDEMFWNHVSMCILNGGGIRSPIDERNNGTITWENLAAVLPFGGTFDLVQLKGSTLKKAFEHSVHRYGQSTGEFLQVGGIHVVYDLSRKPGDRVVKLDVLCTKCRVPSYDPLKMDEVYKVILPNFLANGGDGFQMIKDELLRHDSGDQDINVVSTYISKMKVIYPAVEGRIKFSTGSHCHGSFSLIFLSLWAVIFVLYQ
PROTOCOL DESCRIPTION: Inhibition of recombinant cN-II (unknown origin) assessed as reduction in inorganic phosphate production at 1 mM pre-incubated for 10 mins followed by addition of IMP as substrate and measured after 5 mins by malachite green based assay relative to control
Activity calls are given as the source filed them. The calls are words filed in the database; no cut-off is given here.
QUANTITY MEASURED: inhibition

Take a look at these entries with their results.
| SMILES REPRESENTATION | RESULT |
| --- | --- |
| Nc1ncnc2c1ncn2Cc1ccccc1 | 23% |
| CC(=O)OCCn1cnc2c(N)ncnc21 | inactive |
| Nc1ncnc2ncn(Cc3ccccc3)c12 | 26% |
| CCOP(=O)(Cn1cnc2c(N)ncnc21)OCC | inactive |
| Nc1ncnc2ncn(COCc3ccccc3)c12 | inactive |

Incoming: Provide the documented inhibition with 5'-nucleotidase (Homo sapiens) (UniProt P21589) as the system for `Nc1ncnc2c1ncn2COCc1ccccc1`
Outgoing: 13%
